Reference source: ChEMBL document CHEMBL1142695

Catalogue of Efficacy values
test_system: GABA-A receptor; alpha-3/beta-3/gamma-2 (Homo sapiens) (UniProt P18507+P28472+P34903)
protocol_summary: Efficacy was measured as modulation of the current in response to GABA at hGABA alpha-3-beta-3-gamma-2 receptor expressed in Xenopus oocytes
Assay type: cell-based
condition_details: Oocyte
Put your answer as a value accompanied by its unit after it.

COc1cccc(-c2nnc3c4c(c(OCc5ccccn5)nn23)C2CCC4CC2)c1 43%
Cn1ccnc1COc1nn2c(-c3ccccc3)nnc2c2c1C1CCC2CC1 24%
c1ccc(-c2nnc3c4c(c(OCc5ncccc5OCC5CC5)nn23)C2CCC4CC2)cc1 139%
Cc1ccc(COc2nn3c(-c4ccccc4)nnc3c3c2C2CCC3CC2)nn1 31%

Query: So what Efficacy did Cc1cccnc1COc1nn2c(-c3ccccc3)nnc2c2c1C1CCC2CC1 get with GABA-A receptor; alpha-3/beta-3/gamma-2 (Homo sapiens) (UniProt P18507+P28472+P34903)?
Reply: 7%

Query: So what Efficacy did Cc1cnc(COc2nn3c(-c4ccccc4)nnc3c3c2C2CCC3CC2)c(C)c1 get with GABA-A receptor; alpha-3/beta-3/gamma-2 (Homo sapiens) (UniProt P18507+P28472+P34903)?
Reply: -2%

Query: So what Efficacy did CCOc1cccnc1COc1nn2c(-c3ccccc3)nnc2c2c1C1CCC2CC1 get with GABA-A receptor; alpha-3/beta-3/gamma-2 (Homo sapiens) (UniProt P18507+P28472+P34903)?
Reply: 46%

Query: So what Efficacy did Cc1ccc(C)c(COc2nn3c(-c4ccccc4)nnc3c3c2C2CCC3CC2)n1 get with GABA-A receptor; alpha-3/beta-3/gamma-2 (Homo sapiens) (UniProt P18507+P28472+P34903)?
Reply: 12%

Query: So what Efficacy did CCCn1ncnc1COc1nn2c(-c3ccccc3)nnc2c2c1C1CCC2CC1 get with GABA-A receptor; alpha-3/beta-3/gamma-2 (Homo sapiens) (UniProt P18507+P28472+P34903)?
Reply: 78%

Query: So what Efficacy did c1ccc(-c2nnc3c4c(c(OCc5cccnc5)nn23)C2CCC4CC2)cc1 get with GABA-A receptor; alpha-3/beta-3/gamma-2 (Homo sapiens) (UniProt P18507+P28472+P34903)?
Reply: 20%

Query: So what Efficacy did c1ccc(Cn2ccnc2COc2nn3c(-c4ccccc4)nnc3c3c2C2CCC3CC2)cc1 get with GABA-A receptor; alpha-3/beta-3/gamma-2 (Homo sapiens) (UniProt P18507+P28472+P34903)?
Reply: 100%

====

Catalogue of pKi values
test_system: GABA-A receptor; alpha-2/beta-3/gamma-2 (Homo sapiens, UniProt P18507+P28472+P47869)
Sequence (P18507 whole entry): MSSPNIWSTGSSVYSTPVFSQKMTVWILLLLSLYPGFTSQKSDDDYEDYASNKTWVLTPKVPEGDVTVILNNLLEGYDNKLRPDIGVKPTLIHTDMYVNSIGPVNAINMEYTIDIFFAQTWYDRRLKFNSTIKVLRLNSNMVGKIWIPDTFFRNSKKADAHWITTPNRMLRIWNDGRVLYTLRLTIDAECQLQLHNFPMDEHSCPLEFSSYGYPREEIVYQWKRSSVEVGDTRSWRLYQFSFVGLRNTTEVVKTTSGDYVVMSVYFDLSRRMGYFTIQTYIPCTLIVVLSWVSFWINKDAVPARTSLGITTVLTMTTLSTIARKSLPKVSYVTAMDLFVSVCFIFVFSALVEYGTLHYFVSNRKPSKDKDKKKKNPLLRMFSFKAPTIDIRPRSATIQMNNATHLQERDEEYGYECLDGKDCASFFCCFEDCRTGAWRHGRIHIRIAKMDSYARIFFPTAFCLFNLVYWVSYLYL
Sequence (P28472 whole entry): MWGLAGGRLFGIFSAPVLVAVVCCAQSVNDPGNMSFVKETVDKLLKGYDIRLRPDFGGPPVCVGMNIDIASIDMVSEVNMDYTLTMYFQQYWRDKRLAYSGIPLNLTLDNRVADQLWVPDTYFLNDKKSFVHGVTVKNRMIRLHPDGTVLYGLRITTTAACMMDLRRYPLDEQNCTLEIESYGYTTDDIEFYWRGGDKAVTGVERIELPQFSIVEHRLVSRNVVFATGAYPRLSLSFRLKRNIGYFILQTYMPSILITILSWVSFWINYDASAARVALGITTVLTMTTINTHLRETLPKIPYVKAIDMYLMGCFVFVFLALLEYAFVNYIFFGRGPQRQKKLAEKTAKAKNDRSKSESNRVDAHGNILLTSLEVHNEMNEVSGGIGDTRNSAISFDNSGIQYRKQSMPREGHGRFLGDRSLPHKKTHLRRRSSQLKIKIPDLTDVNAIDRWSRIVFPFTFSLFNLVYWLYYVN
Sequence (P47869 whole entry): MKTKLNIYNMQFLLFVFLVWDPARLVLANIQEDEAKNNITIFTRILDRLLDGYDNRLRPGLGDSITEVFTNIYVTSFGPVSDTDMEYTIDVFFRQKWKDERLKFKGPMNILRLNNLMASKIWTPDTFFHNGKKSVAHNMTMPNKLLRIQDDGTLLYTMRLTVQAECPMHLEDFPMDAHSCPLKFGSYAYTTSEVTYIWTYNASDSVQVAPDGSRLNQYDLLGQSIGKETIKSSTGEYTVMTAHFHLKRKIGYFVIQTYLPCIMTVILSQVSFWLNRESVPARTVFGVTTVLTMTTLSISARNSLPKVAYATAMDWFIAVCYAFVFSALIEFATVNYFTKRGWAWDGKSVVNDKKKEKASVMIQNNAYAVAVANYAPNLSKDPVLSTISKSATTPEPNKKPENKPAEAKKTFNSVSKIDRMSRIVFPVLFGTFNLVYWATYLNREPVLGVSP
protocol_summary: Inhibition of [3H]Ro-151788 binding to recombinant human gamma-aminobutyric acid A receptor alpha-2-beta-3-gamma-2 subtype expressed in L (tk-) cells
pKi: −log10 of the molar value.

COc1ccccc1-c1nnc2c3c(c(OCc4ccccn4)nn12)C1CCC3CC1 < 6.00

Query: Please look up its pKi: c1ccc(COc2nn3c(N4CCOCC4)nnc3c3c2C2CCC3CC2)nc1
Reply: < 6.00

Query: Please look up its pKi: c1ccc(COc2nn3c(-c4ccccc4)nnc3c3c2C2CCC3CC2)cc1
Reply: < 6.00
